// data source = patent US11753445B2

- test: Stability in mouse plasma, peptides 10 uM (Example 15)
- Format: in vitro ADME
- assayContext: pooled mouse plasma; mouse plasma 37° C.; peptide 10 uM; 30 min; read-out: % Remaining at Each Time Point: 30 min
For each record, write down the corresponding remaining at 0.5 h, 10 uM.
Provide only the numeric value, understood in %.

Query: Would you kindly share the measured remaining at 0.5 h, 10 uM for H-RWQEENYIFEPR-OH [compound 259] ?
Response: 65.2

Query: Input H-MRWQEMGYIFYARKLR-OH [compound 17]
Response: 26.8

Query: Input H-RWQEMNYIFYP-OH [compound 283]
Response: 25.8

Query: Input H-MRWQEMNYIFYP-OH [compound 282]
Response: 25.7

Query: Input H-RWQEEQYIFYPR-OH [compound 263]
Response: 68.6

Query: Input H-RWQEMQYIAYPR-OH [compound 255]
Response: 62.6

Query: Input H-RWQEMNYIAYPR-OH [compound 250]
Response: 54.1

Query: Input H-RWQEMNYIFEPR-OH [compound 249]
Response: 40.5

Query: Input H-MRWQEMGYIFYPRKLR-OH [compound 2]
Response: 38.9

Query: Input H-RWQEENYIAEPR-OH [compound 261]
Response: 73.4

Query: Input H-MRWQEEGYIFYPRKLR-OH [compound 172]
Response: 33.6

Query: Input H-MRWQEMGYIFYPRKL-OH [compound 45]
Response: 33

Query: Input H-MRWQEMNYIFYPR-OH [compound 208]
Response: 51.8

Query: Input H-WQEMGYIFYPRKL-OH [compound 269]
Response: 45.8

Query: Input H-RWQEMQYIFYPR-OH [compound 211]
Response: 72.8

Query: Input H-RWQEEQYIAEPR-OH [compound 266]
Response: 72.3

Query: Input H-RWQEMQYIFEPR-OH [compound 254]
Response: 33.3

Query: Input H-WQEMNYIFYP-OH [compound 285]
Response: 16.7

Query: Input H-RWQEENYIAYPR-OH [compound 260]
Response: 68.8

Query: Input Ac-MRWQEMNYIFYPR-OH [compound 286]
Response: 74.7

Query: Input H-RWQEENYIFYPR-OH [compound 258]
Response: 53.5

Query: Input H-RWQEMNYIAEPR-OH [compound 251]
Response: 47.5

Query: Input H-QEMGYIFYPRKL-OH [compound 270]
Response: 3.22

Query: Input H-RWQEMGYIFYPRKL-OH [compound 268]
Response: 49.5

Query: Input H-MRWQEMNYIFYP-NH2 [compound 287]
Response: 45.2

Query: Input H-RWQEEQYIFEPR-OH [compound 264]
Response: 68.2

Query: Input H-WQEMNYIFYPR-OH [compound 284]
Response: 60.1

Query: Input H-ERWQEAGYIAYPR-OH [compound 241]
Response: 96.8

Query: Input H-RWQEEQYIAYPR-OH [compound 265]
Response: 74.5

Query: Input H-RWQEMNYIFYPR-OH [compound 210]
Response: 79.5

###

For each record, write down the corresponding remaining at 1 h, 10 uM.
- test: Stability in mouse plasma, peptides 10 uM (Example 15)
- Assay type: in vitro ADME
- assayContext: pooled mouse plasma; mouse plasma 37° C.; peptide 10 uM; 60 min; read-out: % Remaining at Each Time Point: 60 min
Provide only the numeric value, understood in %.

Query: Would you kindly share the measured remaining at 1 h, 10 uM for H-MRWQEMGYIFYARKLR-OH [compound 17] ?
Response: 11.9

Query: Input H-RWQEMNYIAYPR-OH [compound 250]
Response: 35.9

Query: Input H-RWQEMGYIFYPRKL-OH [compound 268]
Response: 20.3
